# targetUnderTest: human GPR119 (Homo sapiens, UniProt Q8TDV5)
# Construct: expressed in transfected cells; host or cells: HEK 293s
# Sequence (Q8TDV5 whole entry): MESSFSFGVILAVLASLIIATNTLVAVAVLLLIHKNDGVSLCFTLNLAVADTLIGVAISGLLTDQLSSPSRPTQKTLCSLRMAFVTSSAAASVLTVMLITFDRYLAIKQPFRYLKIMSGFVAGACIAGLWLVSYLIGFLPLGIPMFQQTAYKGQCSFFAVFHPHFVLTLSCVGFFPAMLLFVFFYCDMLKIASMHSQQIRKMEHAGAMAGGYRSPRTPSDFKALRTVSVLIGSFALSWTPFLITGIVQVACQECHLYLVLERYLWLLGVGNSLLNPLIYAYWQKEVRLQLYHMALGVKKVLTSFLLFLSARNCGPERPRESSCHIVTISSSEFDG
# assayText: Cyclic AMP (HTRF cAMP) assay for human GPR119, Method A
# Format: cell-based
# reportedConditions: HEK293S, 0.75 h; Method A; HEK 293s cells over-expressing human GPR119; percent effect at top concentration 30 μM relative to maximum (50 μM Oleoylethanolamide) and minimum (1% DMSO) controls
parameter: activation at 30 µM (%)

See these solved cases before continuing.
                                   compound  testvalue
0  COc1cc(COc2cnc(N3CCN(C(=O)OC(C)(C)C)CC3)nc2)c(F)cn1 [Example 8]         26
1  CNS(=O)(=O)c1ccc(COc2cnc(N3CCN(C(=O)OC(C)(C)C)CC3)nc2)cc1 [Example 16]         57
2  N#Cc1cnccc1COc1cnc(N2CCN(C(=O)OC3CCC3)CC2)nc1 [Example 65]        164

[a] CC1(OC(=O)N2CCN(c3ncc(OCc4ccncc4C#N)cn3)CC2)CC1 [Example 62]
[b] CC(C)(C)OC(=O)N1CCN(c2ncc(OCc3ccc(C(=O)N4CCOCC4)cc3)cn2)CC1 [Example 53]
[c] CC1(OC(=O)N2CCN(c3ncc(OCc4ccncc4C#N)cn3)CC2)COC1 [Example 81]
[d] CN(C)CCNC(=O)c1ccc(COc2cnc(N3CCN(C(=O)OC(C)(C)C)CC3)nc2)cc1 [Example 48]
[e] C[S+]([O-])c1ccc(COc2cnc(N3CCN(C(=O)OC(C)(C)C)CC3)nc2)cc1 (centres unmarked) [Example 93]
Hey, quick one: sort these by activation at 30 µM, largest value first please. Reply with the item labels sorted in the order that was asked for.
a, c, e, b, d

These measurements were taken from patent US20110065706A1.
